Reference for the values: patent US6355799B1

Quick list: Pre-emerge Herbicidal Activity CORN per entry.
System: field corn (Zea mays L., var. Dekalb 535, CORN)
Run Description: Pre-emerge test, crop safety
Type: in vivo
Study Conditions: 250 g ai/ha; crop damage rating 0-100, 14 days after application
Experimental Readout: Pre-emerge Herbicidal Activity CORN

>>> measurement("Cc1ccc(OC(=O)Nc2c(C)c(Cl)cc(F)c2-n2c(=O)cc(C(F)(F)F)n(C)c2=O)cc1C [4-53]")
25
>>> measurement("Cn1c(C(F)(F)F)cc(=O)n(-c2c(F)cc(Cl)c(OCC#N)c2NC(=O)OCc2ccccc2)c1=O [4-23]")
90
>>> measurement("COc1c(Cl)cc(F)c(-n2c(=O)cc(C(F)(F)F)n(C)c2=O)c1NC(=O)OCc1cc(C)cc(C)c1 [4-37]")
0
>>> measurement("COc1c(Cl)cc(F)c(-n2c(=O)cc(C(F)(F)F)n(C)c2=O)c1NC(=O)OCc1ccc(Cl)c(Cl)c1 [4-32]")
10
>>> measurement("CCOC(=O)C(C)Oc1c(Cl)cc(F)c(-n2c(=O)cc(C(F)(F)F)n(C)c2=O)c1NC(=O)c1ccc2ccccc2c1 (stereo not drawn) [2-191]")
0
>>> measurement("COc1c(Cl)cc(F)c(-n2c(=O)cc(C(F)(F)F)n(C)c2=O)c1NC(=O)OCc1ccc(C(C)C)cc1 [4-42]")
0
>>> measurement("COc1c(Cl)cc(F)c(-n2c(=O)cc(C(F)(F)F)n(C)c2=O)c1NC(=O)OCc1ccc(F)cc1 [4-7]")
95
>>> measurement("CCOC(=O)COc1c(Cl)cc(F)c(-n2c(=O)cc(C(F)(F)F)n(C)c2=O)c1NC(=O)C=Cc1ccccc1 [2-190]")
0
>>> measurement("COc1c(Cl)cc(F)c(-n2c(=O)cc(C(F)(F)F)n(C)c2=O)c1NC(=O)Oc1ccccc1C(C)(C)C [4-27]")
0
>>> measurement("COc1c(Cl)cc(F)c(-n2c(=O)cc(C(F)(F)F)n(C)c2=O)c1NC(=O)OCc1c(F)cccc1F [4-29]")
95
>>> measurement("Cn1c(C(F)(F)F)cc(=O)n(-c2c(F)cc(Cl)c(O)c2NC(=O)c2ccc3ccccc3c2)c1=O [Compound 2-194]")
0
>>> measurement("COc1c(Cl)cc(F)c(-n2c(=O)cc(C(F)(F)F)n(C)c2=O)c1NC(=O)OCc1cccc(F)c1 [4-44]")
95
>>> measurement("Cc1c(Cl)cc(F)c(-n2c(=O)cc(C(F)(F)F)n(C)c2=O)c1NC(=O)OCc1ccccc1Cl [4-54]")
5
>>> measurement("COc1c(Cl)cc(F)c(-n2c(=O)cc(C(F)(F)F)n(C)c2=O)c1NC(=O)OCc1ccccc1[N+](=O)[O-] [4-34]")
90
>>> measurement("CCc1ccc(COC(=O)Nc2c(OC)c(Cl)cc(F)c2-n2c(=O)cc(C(F)(F)F)n(C)c2=O)cc1 [4-31]")
10
>>> measurement("COc1c(Cl)cc(F)c(-n2c(=O)cc(C(F)(F)F)n(C)c2=O)c1NC(=O)OCc1ccc(OC(F)(F)F)cc1 [4-45]")
20
>>> measurement("Cn1c(C(F)(F)F)cc(=O)n(-c2c(F)cc(Cl)c(Oc3ncccc3[N+](=O)[O-])c2NC(=O)c2ccc3ccccc3c2)c1=O [2-199]")
100
>>> measurement("COc1c(Cl)cc(F)c(-n2c(=O)cc(C(F)(F)F)n(C)c2=O)c1NC(=O)OCc1ccc(C)c(C)c1 [4-26]")
0
>>> measurement("COc1c(Cl)cc(F)c(-n2c(=O)cc(C(F)(F)F)n(C)c2=O)c1NC(=O)Oc1c(C)cc(C)cc1C [4-25]")
0
>>> measurement("COc1c(Cl)cc(F)c(-n2c(=O)cc(C(F)(F)F)n(C)c2=O)c1NC(=O)OC(C)c1ccccc1 (stereo not drawn) [4-47]")
90
>>> measurement("COC(=O)N(C(=O)OC)c1c(OC)c(Cl)cc(F)c1-n1c(=O)cc(C(F)(F)F)n(C)c1=O [4-2]")
5
>>> measurement("COc1c(Cl)cc(F)c(-n2c(=O)cc(C(F)(F)F)n(C)c2=O)c1NC(=O)OCc1cc(C)ccc1C [4-38]")
20
>>> measurement("COc1c(Cl)cc(F)c(-n2c(=O)cc(C(F)(F)F)n(C)c2=O)c1NC(=O)OCc1ccccc1C(F)(F)F [4-33]")
50
>>> measurement("Nn1c(C(F)(F)F)cc(=O)n(-c2c(F)cc(Cl)c(O)c2NC(=O)c2ccc3ccccc3c2)c1=O [Compound 2-192]")
0
